Assay: Pharmacokinetic assay in mice
Format: in vivo, Balb/c mice
Conditions: plasma, 2 mg/kg; mouse, IV 2mpk; read-out: Vz
measurement_name: Vd

Vd for Cn1ncc2c(N)nc3cc(F)c(C(=O)N4CCOC[C@@H]4c4ccc5c(c4)OC(F)(F)O5)cc3c21 is 2.3 L/kg

====

Test: Pharmacokinetic assay in rats
Assay type: in vivo, SD rats
Conditions: plasma, 0.2 mg/kg; rat, IV 0.2mpk; read-out: Vz
Method: In this experimental example, the pharmacokinetic behavior of the test compounds after administration by intravenous injection (IV) and oral gavage (PO) in SD rats was tested. On the day of administration, rats were weighed for actual body weight, and the administration volume was calculated. […] Plasma concentrations were determined by the LC-MS/MS method. […] The relevant pharmacokinetic parameters were calculated by a linear-log trapezoidal method.
measurement_name: Vd (L/kg)
Write the answer as a number in L/kg, unit excluded.

Vd for Cn1ncc2c(N)nc3cc(F)c(C(=O)N4CCOC[C@@H]4c4ccc5c(c4)OC(F)(F)O5)cc3c21 [Example I-7] is 3.5

====

Test: Pharmacokinetic assay in rats
Assay type: in vivo, SD rats
Conditions: plasma, 100 mg/kg; rat, PO 100mpk
measurement_name: Cmax (µM)
Write the answer as a number in µM, unit excluded.

Cmax for Cn1ncc2c(N)nc3cnc(C(=O)N4CCOC[C@@H]4c4ccc5c(c4)OC(F)(F)O5)cc3c21 is 10.2

====

Test: Pharmacokinetic assay in rats
Assay type: in vivo, SD rats
Settings: plasma, 10 mg/kg; rat, PO 10mpk
measurement_name: AUC(0-t) (µM·h)
Write the answer as a number in µM·h, unit excluded.

AUC(0-t) for Cn1ncc2c(N)nc3cc(F)c(C(=O)N4CCOC[C@@H]4c4ccc5c(c4)OC(F)(F)O5)cc3c21 is 6.58

====

Experiment: Pharmacokinetic assay in mice
Format: in vivo, Balb/c mice
Settings: mouse, IV 2mpk
Give measured t1/2z for each item. Keep answers brief.
Write the answer as a number in h, unit excluded.

t1/2z for CN(Cc1ccc2c(c1)OC(F)(F)O2)C(=O)c1ccc2nc(N)c3cnn(C)c3c2c1 is 2.8

t1/2z for Cn1ncc2c(N)nc3cc(F)c(C(=O)N4CCOC[C@@H]4c4ccc5c(c4)OC(F)(F)O5)cc3c21 is 1.9

t1/2z for CCN(Cc1ccc2c(c1)OC(F)(F)O2)C(=O)c1ccc2nc(N)c3cnn(C)c3c2c1 is 2.4

t1/2z for CN(Cc1ccc2c(c1)OC(F)(F)O2)C(=O)c1cc2c(cc1F)nc(N)c1cnn(C)c12 is 1.8

t1/2z for Cn1ncc2c(N)nc3cc(F)c(C(=O)N(Cc4ccc5c(c4)OC(F)(F)O5)C4CC4)cc3c21 is 4.4

====

Test: Pharmacokinetic assay in rats
Assay type: in vivo, SD rats
Settings: plasma, 10 mg/kg; rat, PO 10mpk; read-out: MRT(0-∞)
measurement_name: MRT inf (h)
Write the answer as a number in h, unit excluded.

MRT inf for Cn1ncc2c(N)nc3cc(F)c(C(=O)N4CCOC[C@@H]4c4ccc5c(c4)OC(F)(F)O5)cc3c21 is 9.9

====

Give measured C0 for each item. Keep answers brief.
Test: Pharmacokinetic assay in mice
Type: in vivo, Balb/c mice
Conditions: male, Balb/c, plasma, 2 mg/kg; mouse, IV 2mpk
Experimental: Eighteen male Balb/c mice aged 6 to 8 weeks were randomly divided into 2 groups (IV group and PO group). […] Pharmacokinetic parameters of the drug were calculated based on the drug concentration-time data, including the peak concentration Cmax, peak time Tmax, clearance rate CL, steady state apparent volume of distribution Vss, area under drug-time curve AUC, elimination half-life t1/2, bioavailability, and the like. […]
Write the answer as a number in nM, unit excluded.

C0 for CN(Cc1ccc2c(c1)OC(F)(F)O2)C(=O)c1cc2c(cc1F)nc(N)c1cnn(C)c12 is 3520

C0 for Cn1ncc2c(N)nc3cc(F)c(C(=O)N(Cc4ccc5c(c4)OC(F)(F)O5)C4CC4)cc3c21 is 1960

C0 for CN(Cc1ccc2c(c1)OC(F)(F)O2)C(=O)c1ccc2nc(N)c3cnn(C)c3c2c1 is 1520

C0 for CCN(Cc1ccc2c(c1)OC(F)(F)O2)C(=O)c1ccc2nc(N)c3cnn(C)c3c2c1 is 1860
